Every entry's value here was drawn from paper PMC6273715.

System: A549 human lung adenocarcinoma cells
METHOD DESCRIPTION: MTT cytotoxicity assay, A549
Format: cell-based
RUN CONDITIONS: Homo sapiens, A549; MTT, 24 h; read-out: IC50 A549 Cell Line
IC50 values by entry

>  <SMILES REPRESENTATION>
CN(C)c1ccc(C=NNC(=S)Nc2ccc3c(c2)OCO3)cc1

>  <IC50>
> 146 µM

$$$$
>  <SMILES REPRESENTATION>
S=C(NN=Cc1ccccc1)Nc1ccc2c(c1)OCO2

>  <IC50>
> 167 µM

$$$$
>  <SMILES REPRESENTATION>
S=C(NN=Cc1ccc(Cl)cc1)Nc1ccc2c(c1)OCO2

>  <IC50>
> 150 µM

$$$$
>  <SMILES REPRESENTATION>
Fc1ccc(C=NNC(=S)Nc2ccc3c(c2)OCO3)cc1

>  <IC50>
> 158 µM

$$$$
>  <SMILES REPRESENTATION>
S=C(NN=Cc1ccc(Br)cc1)Nc1ccc2c(c1)OCO2

>  <IC50>
> 132 µM

$$$$
